The reported measurements were obtained from the supplement of paper PMC10567573.

Listing of entries alongside the reported protein stability index.
B1: ESRRA (parent)
chain: SLPLQDELAFAEDLVLDEEGARAA

Variants of: B1
Assay: protein stability index of a GFP-peptide fusion (GPS, HEK-293T) (PSI 1-6); higher = more stable;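 further: lentivirally expressed fusions sorted by FACS into six bins by GFP to DsRed ratio, PSI derived from sequencing read proportions per bin multiplied by bin number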
Settings: c terminus: a fixed tail appended
Would you mind answering with just the numeric figure?

Example variants with recorded protein stability index:
[
  {
    "Variant Designation": "G20F",
    "protein stability index": 3.47
  },
  {
    "Variant Designation": "G20Y",
    "protein stability index": 2.44
  },
  {
    "Variant Designation": "R22S",
    "protein stability index": 3.62
  }
]

Recorded result, L16R , protein stability index: 3.55

Sample V15H ; protein stability index observed: 5.45

Looking up E12C , I see its protein stability index listed as 5.04

Query E19Y yields protein stability index of 2.77

Quick note, protein stability index for R22L landed at 3.73

Notebook: D13R , protein stability index read as 3.68

P3L yielded protein stability index of 4.84

Noted for P3T : its protein stability index reads 4.8

According to the records, this variant D13G displays protein stability index of 2.44
